Entry source: patent US12295929B2

# assay remarks: Randomized, open-label, 2-way crossover pharmacokinetics and bioavailability study of oral vs intravenous baclofen
# Type: in vivo, human
# applied conditions: human, plasma; 5 mg IV, mean ± SD
# Method: Twelve healthy human volunteers were recruited. The volunteers were medication free for 48 hours before, during, and 24 hours after the administration of the study drug. […] Study plasma samples were prepared by adding 50 μL of a 500 μg/mL levetiracetam solution (internal standard) to 250 μL of K2 ethylenediaminetetraacetic acid (EDTA) human plasma. […] The assay was linear over the range 20-400 ng/mL with a lower limit of quantification of 20 ng/mL. […]

| molecule | AUC |
| --- | --- |
| NCC(CC(=O)O)c1ccc(Cl)cc1 (racemic) | 593 ng·h/mL |

----------
# assay remarks: Randomized, open-label, 2-way crossover pharmacokinetics and bioavailability study of oral vs intravenous baclofen
# Format: in vivo, human
# applied conditions: 10 mg oral tablet, healthy human volunteers, plasma, mean ± SD

| compound | Cmax |
| --- | --- |
| NCC(CC(=O)O)c1ccc(Cl)cc1 (racemic) | 176 ng/mL |

----------
# assay remarks: Randomized, open-label, 2-way crossover pharmacokinetics and bioavailability study of oral vs intravenous baclofen
# Format: in vivo, human
# applied conditions: human, plasma; 10 mg oral, mean ± SD
property measured: AUC (ng·h/mL)

| molecule | recorded value |
| --- | --- |
| NCC(CC(=O)O)c1ccc(Cl)cc1 (racemic) | 878 |
